system: MARIMO; assay: cell viability relative to vehicle control; higher = less cytotoxic; conditions: 10 µM; SRSF2 genotype: SRSF2 P95H/wt;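 further: after 48 h exposure read by CellTiter-Glo luminescence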
Observation type: cell viability (%)

>>> value_reported("C=C1C(=O)O[C@@H]2/C=C(\\C)CC/C=C(\\C)CC[C@@H]12 [Costunolide]")
25.3
>>> value_reported("CN1CCN(c2c(F)cc3c(=O)c(C(=O)O)cn4c3c2OCN4C)CC1")
102
>>> value_reported("Cc1cc(=O)c2c(O)c3c(cc2o1)OC(C)(C)[C@@H](O[C@@H]1O[C@H](CO)[C@@H](O)[C@H](O)[C@H]1O)C3")
106
>>> value_reported("NC1(C(=O)N[C@@H](CCO)c2ccc(Cl)cc2)CCN(c2ncnc3[nH]ccc23)CC1")
66.6

###

tested on: OCI-AML2; test: cell viability relative to vehicle control; higher = less cytotoxic; conditions: 10 µM; SRSF2 genotype: wt/wt
Observation type: cell viability (%)

>>> value_reported("O=C1C[C@@H](c2ccc(O)cc2)Oc2cc(O)cc(O)c21 [Naringenin]")
96.7
>>> value_reported("COCC[n+]1c2c(n(Cc3cnccn3)c1C)C(=O)c1ccccc1C2=O [YM155 (Sepantronium Bromide)]")
0.36
>>> value_reported("Cc1cc(N2CCCCC2)nc2ccccc12")
103
>>> value_reported("O=C(O)c1cc(/N=N/c2ccc(O)c(C(=O)O)c2)ccc1O [Olsalazine Sodium]")
90.1
>>> value_reported("C=C1CC[C@H]2O[C@]2(C)CC[C@@H]2[C@@H]1CC2(C)C [Caryophyllene oxide]")
98
>>> value_reported("CCOc1nc2cccc(C(=O)OC(C)OC(=O)OC3CCCCC3)c2n1Cc1ccc(-c2ccccc2-c2nn[nH]n2)cc1 (stereo unspecified) [Candesartan cilexetil (Atacand)]")
72.1

###

tested on: MOLM14; assay: cell viability relative to vehicle control; higher = less cytotoxic; conditions: 10 µM; SRSF2 genotype: SRSF2 P95H/wt
Structures can show the parent of a compound that is named as a salt.
We begin with a simple list: items and their reported cell viability.
Observation type: cell viability (%)

>>> value_reported("C/C=C(/C)C(=O)O[C@H]1[C@@H](OC(C)=O)c2c(ccc3ccc(=O)oc23)OC1(C)C [(+)-Praeruptorin A]")
82.8
>>> value_reported("COc1ccc2cc([C@H](C)C(=O)O)ccc2c1 [Naproxen Sodium]")
98.6
>>> value_reported("CCNC(=O)CCC/C=C\\C[C@@H]1[C@@H](/C=C/[C@@H](O)CCc2ccccc2)[C@H](O)C[C@@H]1O")
98.4
>>> value_reported("O=C(O)[C@]1(Cc2cccc(Nc3nccs3)n2)CC[C@@H](Oc2cccc(Cl)c2F)CC1")
27.7
>>> value_reported("CC(=O)Oc1cc(C)c(OC(C)=O)c2ccccc12 [Menadiol Diacetate]")
15.3
>>> value_reported("CC1(C)[C@@H](O[C@H]2O[C@H](C(=O)O)[C@@H](O)[C@H](O)[C@H]2O[C@@H]2O[C@H](C(=O)O)[C@@H](O)[C@H](O)[C@H]2O)CC[C@]2(C)[C@H]3C(=O)C=C4[C@@H]5C[C@@](C)(C(=O)O)CC[C@]5(C)CC[C@@]4(C)[C@]3(C)CC[C@@H]12 [Ammonium Glycyrrhizinate (AMGZ)]")
104
>>> value_reported("S=C(N/N=C1/CCCc2cccnc21)N1CCN(c2ccccn2)CC1")
22.1
>>> value_reported("Cc1cc(=O)oc2ccc(O)cc12 [6-Hydroxy-4-methylcoumarin]")
101
>>> value_reported("CCCCCCCCC/C(=C\\C1=C(C)C(=O)C(OC)=C(OC)C1=O)C(=O)O")
94.2
>>> value_reported("O=C(C=Cc1cccnc1)c1ccncc1")
19.3
>>> value_reported("Cn1c(=O)c(Oc2ccc(F)cc2F)cc2cnc(NC(CCO)CCO)nc21")
92.2
>>> value_reported("COc1ncnc(NS(=O)(=O)c2ccc(N)cc2)c1OC [Sulfadoxine (Sulphadoxine)]")
95.4
>>> value_reported("COc1c(N2C[C@@H]3CCCN[C@@H]3C2)c(F)cc2c(=O)c(C(=O)O)cn(C3CC3)c12")
95.3
>>> value_reported("CC[C@H]1OC(=O)[C@H](C)[C@@H](O[C@H]2C[C@@](C)(OC)[C@@H](O)[C@H](C)O2)[C@H](C)[C@@H](O[C@@H]2O[C@H](C)C[C@H](N(C)C)[C@H]2O)[C@](C)(O)C[C@@H](C)/C(=N\\OCOCCOC)[C@H](C)[C@@H](O)[C@]1(C)O [Roxithromycin (Roxl-150)]")
101
>>> value_reported("CCS(=O)(=O)N1CC(CC#N)(n2cc(-c3ncnc4[nH]ccc34)cn2)C1")
106
>>> value_reported("COc1c(C)c2c(c(O)c1C/C=C(\\C)CCC(=O)O)C(=O)OC2")
10.9
>>> value_reported("O=C(O)/C=C/c1ccc(Cn2ccnc2)cc1 [Ozagrel HCl]")
98.8
>>> value_reported("COc1cc2ncnc(Nc3ccc(F)c(Cl)c3)c2cc1OCCCN1CCOCC1 [Gefitinib (ZD1839)]")
39.7
>>> value_reported("O=C(Nc1ccccc1)N1CCN(c2nc(-c3ccccc3)ns2)CC1")
90.5
>>> value_reported("C[C@H]1[C@H](C)CC[C@]2(C(=O)O[C@@H]3O[C@H](CO[C@@H]4O[C@H](CO)[C@@H](O[C@@H]5O[C@@H](C)[C@H](O)[C@@H](O)[C@H]5O)[C@H](O)[C@H]4O)[C@@H](O)[C@H](O)[C@H]3O)CC[C@]3(C)C(=CC[C@@H]4[C@@]5(C)C[C@@H](O)[C@H](O)[C@@](C)(CO)[C@@H]5[C@H](O)C[C@]43C)[C@H]12 [Madecassoside]")
97.8
>>> value_reported("C[C@@H]1O[C@@H](O[C@H]2[C@H](O[C@H]3CC[C@@]4(C)[C@@H](CC[C@]5(C)[C@@H]4CC=C4[C@@H]6CC(C)(C)CC[C@]6(C(=O)O)CC[C@]45C)[C@]3(C)CO)OC[C@H](O[C@@H]3O[C@H](CO)[C@@H](O)[C@H](O)[C@H]3O)[C@@H]2O)[C@H](O)[C@H](O)[C@H]1O")
0.5
>>> value_reported("CC(C)(O[C@@H]1O[C@H](CO)[C@@H](O)[C@H](O)[C@H]1O)[C@H]1Cc2cc3ccc(=O)oc3cc2O1")
110
>>> value_reported("O=C(O)COc1ccc(Br)cc1C=C1SC(=S)N(Cc2cccnc2)C1=O [Skp2 inhibitor C1 (SKPin C1)]")
5.39
>>> value_reported("Cn1cc(C[C@@H](N)C(=O)O)c2ccccc21")
103
>>> value_reported("CN(Cc1ccc(C(C)(C)C)cc1)Cc1cccc2ccccc12 [Butenafine HCl]")
93.4
